Each recorded value in this set is attributed to ChEMBL document CHEMBL4613220.

# TESTED ON: 5-demethoxyubiquinone hydroxylase, mitochondrial (Homo sapiens)
# ASSAY SUMMARY: Inhibition of COQ7 in human HeLa cells assessed as DMQ10 level per well at 10 uM after 2 days by HPLC analysis
# Type: cell-based
Can you tell me Activity for the items I'm about to list?
One number for each entry, in ng.

1. Oc1cc(-c2ccccc2)nn1-c1ccccc1 = 0
2. Oc1cc(C2CCCC2)nn1-c1ccccn1 = 5.8
3. Oc1cc(-c2ccccc2)nn1-c1ccc(Cl)cn1 = 13.2

Provide each entry's Activity from the list below.
1. Oc1cc(C2CCC2)nn1-c1ccccn1
2. Oc1cc(-c2ccccc2)nn1-c1cc(Cl)ccn1
3. Nc1ccc(-n2nc(-c3ccccc3)cc2O)nc1
4. COc1ccc(-n2nc(-c3ccccc3)cc2O)nc1

1. 0
2. 0
3. 2.6
4. 0

====

# TESTED ON: UniProt Q99807
# ASSAY SUMMARY: Inhibition of COQ7 in human HeLa cells assessed as DMQ10 level per well at 10 uM after 2 days by HPLC analysis relative to control
# Assay type: cell-based
# Parameters: scale not given: the % may be the effect or the level left
MEASURED PARAMETER: Activity (%)
Give bare numbers, in %.

Example entries and their recorded answers appear below.
1. Oc1cc(-c2ccccc2)nn1-c1ccc(F)cn1 = 10.8
2. Nc1ccc(-n2nc(-c3ccccc3)cc2O)nc1 = 10

Provide each entry's Activity from the list below.
1. Oc1cc(-c2ccccc2)nn1-c1ncccc1Cl
2. Oc1cc(-c2ccccc2)nn1-c1ccncc1

0
0

====

Can you tell me Activity for the items I'm about to list?
# TESTED ON: 5-demethoxyubiquinone hydroxylase, mitochondrial (Homo sapiens) (UniProt Q99807)
# Sequence (whole entry): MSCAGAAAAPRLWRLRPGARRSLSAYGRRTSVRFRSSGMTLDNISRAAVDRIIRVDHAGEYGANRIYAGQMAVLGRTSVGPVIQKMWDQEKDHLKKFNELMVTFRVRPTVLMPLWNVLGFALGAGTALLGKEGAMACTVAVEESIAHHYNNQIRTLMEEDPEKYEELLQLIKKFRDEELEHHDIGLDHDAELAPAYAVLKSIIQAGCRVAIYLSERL
# ASSAY SUMMARY: Inhibition of COQ7 in human HeLa cells assessed as UQ10 level per well at 10 uM after 2 days by HPLC analysis
# Type: cell-based
Answers are plain numbers, in ng.

Example entries and their recorded answers appear below.
1) Oc1cc(-c2ccccc2)nn1-c1cc(Cl)ccn1 = 22.7
2) COc1ccc(-n2nc(-c3ccccc3)cc2O)nc1 = 6.7
3) Oc1cc(CCc2ccccc2)nn1-c1ccccn1 = 8.8

Provide each entry's Activity from the list below.
1. Oc1cc(-c2ccccc2)nn1-c1ccccn1
2. Oc1cc(C2CCCCC2)nn1-c1ccccn1
3. Oc1cc(-c2ccccc2)nn1-c1ccc(F)cn1
4. Oc1cc(C2CCC2)nn1-c1ccccn1
5. CS(=O)(=O)c1ccc(-n2nc(-c3ccccc3)cc2O)nc1
6. Cc1ccc(-n2nc(-c3ccccc3)cc2O)nc1
7. Oc1cc(-c2ccccc2)nn1-c1ccc(C(F)(F)F)cn1
8. Oc1cc(CC2CCCCC2)nn1-c1ccccn1

17.1
5.9
14.8
24.4
17.8
15.4
9.4
8.8

Provide each entry's Activity from the list below.
1. Oc1cc(-c2ccccc2)nn1-c1ccncc1
2. Oc1cc(C2CCCC2)nn1-c1ccccn1
3. Oc1cc(-c2ccccc2)nn1-c1ccc(Cl)cn1
4. Oc1cc(-c2ccccc2)nn1-c1ccccc1
5. Clc1cc(-c2ccccc2)nn1-c1ccccn1

33.7
12.1
12.2
28.5
35.7

Provide each entry's Activity from the list below.
1. Oc1cc(-c2ccccc2)nn1-c1ncccc1Cl
2. Nc1ccc(-n2nc(-c3ccccc3)cc2O)nc1
3. Oc1cc(-c2ccccc2)nn1-c1cccnc1

20.7
23.4
23.7
